Exercise: for every item that follows, state its recorded growth.
Tested on: Falciformispora senegalensis CBS197.79
Test protocol: growth relative to untreated control; higher = less inhibition, active = 20 or less
Details: 100 µM
Reply with just the number (in %).

Reported growth, compound CN(C)CCn1c(Nc2cc(Cl)cc(C(F)(F)F)c2)nc2cnc(NC3CCCC3)cc21 : ____
105

Reported growth, compound CC[C@@H]1CCC[C@H](O[C@H]2CC[C@H](N(C)C)[C@@H](C)O2)[C@@H](C)C(=O)C2=C[C@@H]3[C@@H](C=C(C)[C@@H]4C[C@@H](O[C@@H]5O[C@@H](C)[C@H](OC)[C@@H](OC)[C@H]5OC)C[C@@H]34)[C@@H]2CC(=O)O1.CC[C@@H]1CCC[C@H](O[C@H]2CC[C@H](N(C)C)[C@@H](C)O2)[C@@H](C)C(=O)C2=C[C@@H]3[C@@H](C=C[C@@H]4C[C@@H](O[C@@H]5O[C@@H](C)[C@H](OC)[C@@H](OC)[C@H]5OC)C[C@@H]34)[C@@H]2CC(=O)O1 : ____
93.3

Reported growth, compound O=C(NC(=O)c1c(F)cccc1F)Nc1ccc(Cl)c(Oc2ncc(C(F)(F)F)cc2Cl)c1 : ____
84

Reported growth, compound CNCCn1c(Nc2cc(Cl)cc(C(F)(F)F)c2)nc2cnc(NC3CC(F)(F)C3)cc21 : ____
26.2

Reported growth, compound C[C@@H]1O[C@@H](O[C@@H]2C=C3CC[C@@H]4[C@H](CC[C@]5(C)[C@@H](c6ccc(=O)oc6)CC[C@]45O)[C@@]3(C)CC2)[C@H](O)[C@H](O)[C@H]1O : ____
104
